experiment: In vivo pharmacokinetic trial in rat (gavage and intravenous injection); design: species or system SD male rats; conditions: male, SD, plasma, iv, 15 mg/kg, intravenous injection 15 mg/kg, individual animals No. 5-6, read-out: MRT
ASSAY_READOUT: MRT (h)

[[record]]
mol_smiles = "CC(=O)NC[C@@H]1OC(=O)N2c3ccc(-c4ccc(C#N)nc4)cc3OC[C@@H]12"
assay_result = 7.98


###

assay: In vivo pharmacokinetic trial in rat (gavage and intravenous injection); parameters: species or system SD male rats; details: male, SD, plasma, po, 15 mg/kg, gavage 15 mg/kg, mean of 4 animals, read-out: MRT
ASSAY_READOUT: MRT

[[record]]
molecule = "CC(=O)NC[C@@H]1OC(=O)N2c3ccc(-c4ccc(C#N)nc4)cc3OC[C@@H]12 [Compound 7]"
assay_result = "8.62 h"


###

Assay: In vivo pharmacokinetic trial in rat (gavage and intravenous injection)
Design: species or system SD male rats
Settings: male, SD, plasma, po, 15 mg/kg, gavage 15 mg/kg, individual animals No. 1-4
Experimental: The tested compound was Compound 7, using two administration routes (gavage and intravenous injection). Gavage: four healthy SD male rats weighing 200-250 g were given a dose of 15 mg/kg, with an administered volume of 10 mL/kg. And the compound was prepared as 0.5% CMC—Na. […] Concentration of Compound 7 in plasma was determined using liquid chromatography-tandem mass spectrometry.
ASSAY_READOUT: AUC(0-inf) (ng·h/mL)

[[record]]
molecule = "CC(=O)NC[C@@H]1OC(=O)N2c3ccc(-c4ccc(C#N)nc4)cc3OC[C@@H]12 [Compound 7]"
assay_result = 67100


###

assay: In vivo pharmacokinetic trial in rat (gavage and intravenous injection); design: species or system SD male rats; details: male, SD, plasma, po, 15 mg/kg, gavage 15 mg/kg, individual animals No. 1-4, read-out: AUC0-t
ASSAY_READOUT: AUC0-t (ng·h/mL)

[[record]]
mol_smiles = "CC(=O)NC[C@@H]1OC(=O)N2c3ccc(-c4ccc(C#N)nc4)cc3OC[C@@H]12"
assay_readout = "AUC0-t"
assay_result = 66900


###

experiment: In vivo pharmacokinetic trial in rat (gavage and intravenous injection); set-up: species or system SD male rats; settings: male, SD, plasma, po, 15 mg/kg, gavage 15 mg/kg, mean of 4 animals
ASSAY_READOUT: AUC(0-inf) (ng·h/mL)

[[record]]
molecule = "CC(=O)NC[C@@H]1OC(=O)N2c3ccc(-c4ccc(C#N)nc4)cc3OC[C@@H]12 [Compound 7]"
unit_abbreviation = "ng·h/mL"
assay_result = 66500


###

experiment: In vivo pharmacokinetic trial in rat (gavage and intravenous injection); parameters: species or system SD male rats; conditions: male, SD, plasma, iv, 15 mg/kg, intravenous injection 15 mg/kg, mean of 2 animals, read-out: Cmax
ASSAY_READOUT: Cmax (ng/mL)

[[record]]
mol_smiles = "CC(=O)NC[C@@H]1OC(=O)N2c3ccc(-c4ccc(C#N)nc4)cc3OC[C@@H]12"
assay_readout = "Cmax"
unit_abbreviation = "ng/mL"
assay_result = 7510


###

assay: In vivo pharmacokinetic trial in rat (gavage and intravenous injection); set-up: species or system SD male rats; conditions: male, SD, plasma, iv, 15 mg/kg, intravenous injection 15 mg/kg, individual animals No. 5-6
ASSAY_READOUT: AUC(0-inf) (ng·h/mL)

[[record]]
mol_smiles = "CC(=O)NC[C@@H]1OC(=O)N2c3ccc(-c4ccc(C#N)nc4)cc3OC[C@@H]12"
assay_result = 76200

